Reference for the values: patent US11091749B2

target.under.test: DRB1*0401 (Homo sapiens, UniProt P01903+P01911, A100K/A169T/F76Y/I96L/K127E/L162R/M171V/N62H/P40V/Q125Y/R42H/S133A/S149N/S66Y/V115G/V209L/W38E)
Construct: purchased Benaroya Research Institute (Seattle, Wash.)
test.summary: MHC II competition binding assay
pIC50: −log10 of the molar value. Where no end group is shown, it is not given here.
Property: pIC50; scope: individual sequences
property.measured: pIC50

>>> meas_value("HLHFQTMVNDFSNPTAQ [Peptide 18_22]")
"> 8.00"
>>> meas_value("HLHFQTMVNSFSNPTAQ [Peptide R118T]")
"> 8.00"
>>> meas_value("GVDFFMNEGTPVHAISSGKIV [Design 41_46]")
"> 8.00"
>>> meas_value("DHVKAGQIIGWSGSTGY [Peptide Y93H]")
"< 3.60"
>>> meas_value("HLHFQRMVGDFGNPTAQ [Peptide 212224]")
5.26
>>> meas_value("HLHFQRMVGDFSNPTAQ [Peptide 21_22]")
"> 8.00"
>>> meas_value("HLHFQRMVNDFSNPTAQ [Peptide S122D]")
"> 8.00"
>>> meas_value("HLHFQTMVNDFGNPTAQ [Peptide 182224]")
5.12
>>> meas_value("DYVEAGQIIGWSGSTGY [Peptide K95E]")
"> 8.00"
